Source listed as patent US20060198882A1.

Reported % of lipid in isopropanol/water lower phase values are given for each entry in this list.
# ASSAY_DETAILS: Partition in the two phases of the Dole system
# Type: physicochemical
# CONDITION_DETAILS: Dole two phase system
# Procedure: The distribution of the C18 sphingosine-based ceramides with different acyl chain lengths and of DMS between the polar phase and respectively less polar phase (as defined below) of the Dole two phase system was determined. […] The amount of each of the lipids used in each of the two phases was measured by thin-layer chromatography (TLC). For ceramide quantification TLC was developed in a solvent system containing chloroform/methanol (95:5 v/v). […]
Please provide the amount together with its unit, number first.

CCCCCCCCCCCCC/C=C/[C@@H](O)[C@H](CO)NC(=O)CCCCCCCCCCCCCCC 11%
CCCCCCCCCCCCC/C=C/[C@@H](O)[C@H](CO)NC(=O)CCCCCCC 28%
CCCCCCCCCCCCC/C=C/[C@@H](O)[C@H](CO)NC(=O)CCCCC 37.3%

API: the following record is the query input.
Value of % of lipid in isopropanol/water lower phase reported for the molecule CCCCCCCCCCCCC/C=C/[C@@H](O)[C@H](CO)NC(=O)CCC is 68.5%
